Tested on: HSSY-II complex spheroid growth, percent test/control
Assay: Anticancer human tumor HSSY-II cell line growth inhibition [Asc]; active means viability on the fitted dose curve at most 10% of control; inactive means the rest;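 further: spheroids exposed to drug for 7 days before reading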
Conditions: second compound 1 µM; first compound 0.3 µM
Pick one and only one: active, inactive

MOLECULE	GROUP_LABEL
NC(=O)C(=Cn1cnc(-c2cc(C(F)(F)F)cc(C(F)(F)F)c2)n1)c1cncnc1 + CNC(C)C(=O)NC1CN(S(=O)(=O)c2cccc(S(=O)(=O)N3CCC4CCC(C(=O)NC(c5ccccc5)c5ccccc5)N4C(=O)C(NC(=O)C(C)NC)C3)c2)CCC2CCC(C(=O)NC(c3ccccc3)c3ccccc3)N2C1=O	active
CCN1C(C(=O)NC23CCC(C(=O)O)(CC2)CC3)C(c2cccc(Cl)c2F)C2(C(=O)Nc3cc(Cl)ccc32)C12CCCCC2 (stereo not drawn) + CNC(C)C(=O)NC1CN(S(=O)(=O)c2cccc(S(=O)(=O)N3CCC4CCC(C(=O)NC(c5ccccc5)c5ccccc5)N4C(=O)C(NC(=O)C(C)NC)C3)c2)CCC2CCC(C(=O)NC(c3ccccc3)c3ccccc3)N2C1=O	active

Moving on to the next molecule.
# lookup: test call for Cc1nc(N2CCC3(CC2)COC(C)C3N)c(CO)nc1Sc1ccnc(N)c1Cl (stereo not drawn) + CNC(C)C(=O)NC1CN(S(=O)(=O)c2cccc(S(=O)(=O)N3CCC4CCC(C(=O)NC(c5ccccc5)c5ccccc5)N4C(=O)C(NC(=O)C(C)NC)C3)c2)CCC2CCC(C(=O)NC(c3ccccc3)c3ccccc3)N2C1=O
inactive
